Source: paper doi:10.1101/2024.04.03.587999

target-desc: T1, Outer membrane protein A of Acinetobacter baumannii (recombinant AbOmpA) (Acinetobacter baumannii, UniProt Q6RYW5 20-356)
T1 sequence (looked up): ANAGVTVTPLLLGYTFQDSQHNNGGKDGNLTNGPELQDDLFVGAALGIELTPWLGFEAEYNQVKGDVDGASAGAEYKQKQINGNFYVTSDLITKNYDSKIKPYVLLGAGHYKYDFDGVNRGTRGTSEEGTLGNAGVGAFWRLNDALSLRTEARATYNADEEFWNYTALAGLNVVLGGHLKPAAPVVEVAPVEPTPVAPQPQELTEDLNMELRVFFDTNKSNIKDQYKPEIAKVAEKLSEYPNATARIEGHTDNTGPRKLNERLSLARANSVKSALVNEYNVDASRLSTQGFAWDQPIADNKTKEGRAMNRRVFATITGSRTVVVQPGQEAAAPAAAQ
protocol-summary: SPR
experimental-endpoint: pKd
Scale note: pKd = -log10(concentration in M).

response.value for QMGFMTSPKHSV [P92] (field: pKd) = 8.11
